Tested on: RPMI-8226
protocol: NCI tumour cell line growth inhibition, 48 h
Where a name gives a salt, the structure may show the parent alone. Activity calls are given as the source filed them. Cut-off read from the data, not from the text of the source: active = GI50 up to about 1.1 µM and inactive = higher.
property: GI50

A selection of reference data follows.
[N-]=[N+]=NC1(c2ccccc2)C(=O)Nc2ccccc2C1=O (stereo not given)
22.7 µM (inactive)
CCOC(=O)c1cc2c(nc1N)-c1ncccc1CC2
22.6 µM (inactive)
O=C1C(=Cc2cccc(Cl)c2)N=C(c2ccccc2)N1n1c(-c2ccccc2)nc2ccccc2c1=O
40.8 µM (inactive)

(Q) What does the record list as GI50 for O=C(O)CCC(N/N=N/c1ccc(-c2nc3ccccc3[nH]2)cc1)C(=O)O (stereo not given) ?
(A) 17.9 µM (inactive)

(Q) Which GI50 is listed for S=C1SCN(C2CCCCCCCCCCC2)CN1C1CCCCCCCCCCC1 ?
(A) 47.5 µM (inactive)

(Q) What GI50 value was documented for this molecule, COc1cc(/C=C(\OC(C)=O)c2ccc3c(c2)OCO3)cc(OC)c1OC ?
(A) 20.8 µM (inactive)

(Q) Which GI50 is reported for this molecule? CC1=COC2=C(C)C(=O)C(=O)c3c(C)ccc1c32
(A) 1.42 µM (inactive)

(Q) Field request: GI50 | item: CC(=O)N(C)c1ccc(Nc2cc(C)nc3ccc4nc[nH]c4c23)cc1 [ACODAZOLE HYDROCHLORIDE]
(A) 8.07 µM (inactive)

(Q) I would be grateful if you could share the reported GI50 for O=c1c2sc(=S)n(-c3ccc(F)cc3)c2ncn1/N=C/c1ccc(F)cc1F .
(A) 52.2 µM (inactive)

(Q) For COc1cccc(NC(=S)Nn2c(C)nc3ccccc3c2=O)c1 , what is its reported GI50?
(A) > 100 µM (inactive)
